The measurements presented in this section are drawn from patent US20260209362A1.

# % cells bound annotations
# assayedSystem: T1, mouse IL-12Rβ2 expressed on cells (mouse, UniProt P97378 24-874)
# T1 construct: HEK293T cells, stably transduced (cDNA NM_008354); also called mIL-12RB2
# T1 sequence: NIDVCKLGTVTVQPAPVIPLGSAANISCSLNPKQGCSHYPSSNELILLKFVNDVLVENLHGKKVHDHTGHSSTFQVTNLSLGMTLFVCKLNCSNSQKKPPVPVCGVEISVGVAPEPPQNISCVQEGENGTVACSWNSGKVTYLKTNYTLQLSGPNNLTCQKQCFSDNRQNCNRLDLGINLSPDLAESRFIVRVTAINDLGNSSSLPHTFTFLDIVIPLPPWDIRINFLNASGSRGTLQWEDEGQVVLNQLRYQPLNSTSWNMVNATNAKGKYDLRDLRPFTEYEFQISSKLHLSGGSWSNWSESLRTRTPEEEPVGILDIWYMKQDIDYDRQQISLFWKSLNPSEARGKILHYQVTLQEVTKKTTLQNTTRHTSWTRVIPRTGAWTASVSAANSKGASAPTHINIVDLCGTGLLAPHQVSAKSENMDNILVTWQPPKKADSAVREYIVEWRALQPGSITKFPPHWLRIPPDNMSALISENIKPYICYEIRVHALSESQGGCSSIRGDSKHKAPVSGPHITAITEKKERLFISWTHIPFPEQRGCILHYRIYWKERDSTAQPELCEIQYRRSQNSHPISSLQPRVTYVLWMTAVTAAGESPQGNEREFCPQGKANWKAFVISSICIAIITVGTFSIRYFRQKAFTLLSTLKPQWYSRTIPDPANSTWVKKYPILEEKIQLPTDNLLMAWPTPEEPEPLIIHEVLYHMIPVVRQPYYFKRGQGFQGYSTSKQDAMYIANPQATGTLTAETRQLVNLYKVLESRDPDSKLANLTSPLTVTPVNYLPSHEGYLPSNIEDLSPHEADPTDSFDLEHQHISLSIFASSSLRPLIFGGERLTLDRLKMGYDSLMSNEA
# experimentalProtocol: flow cytometry, P.E. VHH on HEK293T cells stably expressing mIL-12RB2
Give the quantity in %, number only.

binder: anti-IL-12Rβ2 VHH clone 2CAMS52 (VHH, not shown: small tags and cut ends, tested as periplasmic extract; also called 20535; 2CAMSSZ) VHH: QVQLQESGGGLVQPGASLRLSCATSGPTLSTYAMGWFRQAPGKEREVVATISWSGGRVTYVDSVKGRFTISRDNAKNTAYLQMNRLRPDDTAVYTCAARESDYGAYDYWGQGTQVTVSS
% cells bound, %: 60.9
--
binder: anti-IL-12Rβ2 VHH clone 3CRH83 (VHH, not shown: small tags and cut ends, tested as periplasmic extract) VHH: QVQLQESGGGLVQAGGSLKLSCAASGNTFSINAMAWYRQAPGQELELVAAISDVGNTIYADSMKGRFTISRGNADNTVYLQMNSLKPEDTATYYCNAGTFYTSPGDSYYRGYDFWGQGTQVTVSS
% cells bound, %: 3.47
--
binder: anti-IL-12Rβ2 VHH clone 3CRHM99 (VHH, not shown: small tags and cut ends, tested as periplasmic extract; also called 21062) VHH: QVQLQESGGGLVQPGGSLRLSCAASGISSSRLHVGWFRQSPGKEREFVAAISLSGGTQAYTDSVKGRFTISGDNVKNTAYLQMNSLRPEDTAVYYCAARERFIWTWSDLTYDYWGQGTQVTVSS
% cells bound, %: 57.3

Ask: Answer with the recorded % cells bound for the binder listed here: anti-IL-12Rβ2 VHH clone 2CAM67 (VHH, not shown: small tags and cut ends, tested as periplasmic extract; also called 20494) VHH: QVQLQESGGGEVQAGGSLRLSCVASGRTFSVYTTGWFRQAPGKEREFVAGMSGTRTYYADSVKGRFTISRDNAKNTVYLQMNSLKPDDTAVYYCAERRYGGPSLVWDEYDYRGQGTQVTVSS
Result: 13.5

Ask: Specify reported % cells bound for the binder shown: anti-IL-12Rβ2 VHH clone 2CAMS29 (VHH, not shown: small tags and cut ends, tested as periplasmic extract; also called 20534) VHH: QVQLQESGGGLVQAGGSLRLSCAASGLTSSTYVIGWFRQAPGKEREFVAAIMLSGGTTIYADSLKGRCTIYKDNAKNTVYLQMNSLKLEDTAVYYCASGLIYRYSDFPRSQKYNFWGQGTQVTVSS
Result: 14.5

Ask: Please supply the value of reported % cells bound for the item anti-IL-12Rβ2 VHH clone 3CAM65 (VHH, not shown: small tags and cut ends, tested as periplasmic extract; also called 20513) VHH: QVQLQESGGGLVQAGGSLRLSCAPSGRTFTTYVMGWFRQAPGKEREFVAHISWSGGRTYYADSVKGRFTISRDNAKNTSYLQMNSLKPEDTAVYYCAAARSDAVRIGYAEGYEYWGQGTQVTVSS
Result: 57.9

Ask: Could you please provide reported % cells bound for anti-IL-12Rβ2 VHH clone 3CAM1 (VHH, not shown: small tags and cut ends, tested as periplasmic extract) VHH: QVQLQESGGGLVQAGGSLRLSCAASGRTFGSHRMGWFRQAPGQEREFVAAIAWRGGTQYYTDSVKGRFTISRDNANNTVYLQMNSLKPEDAAVYYCVAGEGSSWGDITDPRRYVFWGQGTQVTVSS ? Thanks!
Result: 63

Ask: Give the value of % cells bound reported for the following: anti-IL-12Rβ2 VHH clone 2CRMS29 (VHH, not shown: small tags and cut ends, tested as periplasmic extract; also called 20521) VHH: QVQLQESGGGLVQAGGPLRLSCAASGRTFSGSAMGWFRQAPGKEREFVAAITWVGGFTYYADSVKGRFTISRDNAKNTVYLQMNNLSPEDTAVYSCAAQAYHKSGYYYPPLYDYWGQGTQVTVSS
Result: 8.42
